Biological target: Cytochrome P450 2C9 (Homo sapiens) (UniProt P11712)
Sequence (P11712 whole entry, looked up): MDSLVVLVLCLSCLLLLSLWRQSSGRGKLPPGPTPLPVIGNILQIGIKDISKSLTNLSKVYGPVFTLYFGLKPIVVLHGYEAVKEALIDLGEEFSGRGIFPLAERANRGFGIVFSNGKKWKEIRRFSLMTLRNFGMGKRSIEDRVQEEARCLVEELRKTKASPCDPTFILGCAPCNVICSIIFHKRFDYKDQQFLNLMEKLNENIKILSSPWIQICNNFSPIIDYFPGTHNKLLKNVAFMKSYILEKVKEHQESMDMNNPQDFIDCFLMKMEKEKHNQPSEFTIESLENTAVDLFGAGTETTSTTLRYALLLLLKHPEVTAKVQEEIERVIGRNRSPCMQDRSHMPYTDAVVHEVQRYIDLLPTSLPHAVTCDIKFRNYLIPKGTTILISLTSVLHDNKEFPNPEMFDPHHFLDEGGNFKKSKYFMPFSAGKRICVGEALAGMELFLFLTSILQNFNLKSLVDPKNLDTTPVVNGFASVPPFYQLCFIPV
Assay: Cytochrome P450 family 2 subfamily C member 9 (CYP2C9) small molecule antagonists: luciferase biochemical (cell-free) qHTS assay (AID 1645842); note: nearly all actives have a fitted effect of over 55% in size
Settings: P450-Glo CYP2C9 enzyme assay, luciferin luminescence; series mostly up to 57.4 µM
Inconclusive results are not listed. Calls of active or inactive are those of the source. Calls come from the whole dose curve; as a rule, active = well fitted inhibition curve with a large enough effect in the repeat runs; inconclusive = weak or mixed curves; inactive = no such curve, though single readings can be large or run the other way.
Could you please pick one outcome from this set? true (1) for active, false (0) for inactive

Please review the following examples before continuing.
>  <compound>
CC(C)(C)c1ccc(NC(=O)N2CCN(c3ncccc3Cl)CC2)cc1

>  <assayed target>
Cytochrome P450 2C9 (Homo sapiens) (UniProt P11712)

>  <label class>
true (1)

$$$$
>  <compound>
COc1cc(-c2cn(C3CCc4c(F)cccc4N(CC(F)(F)F)C3=O)nn2)ccc1-n1cnc(C)c1 (stereo not given)

>  <assayed target>
Cytochrome P450 2C9 (Homo sapiens) (UniProt P11712)

>  <label class>
true (1)

$$$$
>  <compound>
O=C(NCCN1CCC(n2c(=O)[nH]c3ccccc32)CC1)c1ccc2ccccc2c1

>  <assayed target>
Cytochrome P450 2C9 (Homo sapiens) (UniProt P11712)

>  <label class>
true (1)

$$$$
>  <compound>
Nc1c(CC(=O)O)cccc1C(=O)c1ccccc1

>  <assayed target>
Cytochrome P450 2C9 (Homo sapiens) (UniProt P11712)

>  <label class>
false (0)

$$$$
>  <compound>
CCC(C)c1ccc(NC(=O)Cn2cnc3c2c(=O)n(C)c(=O)n3C)cc1 (stereo not given)

>  <assayed target>
Cytochrome P450 2C9 (Homo sapiens) (UniProt P11712)

>  <label class>
true (1)

$$$$

Task: In this assay, the call recorded for Fc1ccc(-c2nc(-c3c(F)cccc3F)[nH]c2-c2ccncc2)cc1 was what?
Result: false (0)

Task: Now try CCCCNc1ncc(-c2ccc(CN3CCOCC3)cn2)c(NC2CCC(O)CC2)n1 (stereo not given) .
Result: false (0)

Task: Now try Cc1cccc(CC(=O)N2CCc3c2ccc(-c2cn(C)c4ncnc(N)c24)c3F)n1 .
Result: true (1)

Task: Now try O=C(NCCCCN1CCN(c2cccc(Cl)c2Cl)CC1)c1cc2ccccc2s1 .
Result: true (1)

Task: Now try NS(=O)(=O)c1ccc(N2CCN(CC[C@@H]3OCCc4ccccc43)CC2)cc1 .
Result: false (0)

---

Assay: Primary fluorescence-based thiol-reactive (MSTI) qHTS assay for identification of artifact compounds. (AID 1845221); note: nearly all actives have a fitted effect of over 65% in size
Settings: MSTI thiol-reactivity probe, 1 h; series mostly up to 53.8 µM
Records with an inconclusive call do not appear. Calls of active or inactive are those of the source. The call rests on the fitted dose curve; in most records, active means well fitted inhibition curve with a large enough effect; inconclusive means small, poorly fitted or top-dose-only effect; inactive means no such curve, though single readings can be large or run the other way.
Could you please pick one outcome from this set? active, inactive

Please review the following examples before continuing.
>  <compound>
Cn1cc(-c2ccc3c(c2)CCN3C(=O)Cc2cccc(C(F)(F)F)c2)c2c(N)ncnc21

>  <label class>
active

$$$$
>  <compound>
CCC(CC)C(=O)OC12C(OC(=O)C(C)C)C(C)C3(O)C(C=C(CO)CC4(O)C(=O)C(C)=CC43)C1C2(C)C (stereo not drawn)

>  <label class>
inactive

$$$$
>  <compound>
C=C1C(=O)O[C@@H]2/C=C(\CO)CC/C=C(/C=O)C[C@H](O)[C@@H]12

>  <label class>
active

$$$$

Task: In this assay, the call recorded for O=C(NC[C@H](O)CN1CCc2ccccc2C1)c1ccnc(NC2CCC2)c1 was what?
Result: inactive

Task: Now try C=C[C@@]1(C)C=C2C(=O)C(O)=C3[C@](C)(C(=O)O)CC[C@@H]4C[C@]34[C@]2(O)C(=O)C1 .
Result: active

Task: Now try C=C1CC[C@@H]2[C@](C)(CO)[C@H](O)CC[C@@]2(C)[C@@H]1C/C=C1/C(=O)OCC1OC(=O)/C(=C/CO)C(O)C[C@@H]1C(=C)CC[C@@H]2[C@](C)(CO)[C@H](O)CC[C@]21C (stereo partly drawn) .
Result: inactive

Task: Now try CC1(C)CCCC2(C)C1C(OC(=O)/C=C/C=C/C=O)C=C1COC(=O)C12O (stereo not drawn) .
Result: inactive

Task: Now try CCCCC1CCC(c2nc(-c3ccncc3)no2)CC1 (stereo not drawn) .
Result: inactive
